pIC50: −log10 of the molar value.
Below are pIC50 values recorded for UniProt:Q8TDX5.

# Compound, pIC50
rows = [
    ("N#Cc1c(C2CC2)cc(=O)[nH]c1SCC(=O)O", 5.14),
    ("CC(Sc1[nH]c(=O)cc(C(F)(F)F)c1C#N)C(=O)O (stereo not shown)", 6.57),
    ("N#Cc1c(Cc2ccccc2)cc(=O)[nH]c1SCC(=O)O", 7.44),
    ("N#Cc1c(SCc2nnn[nH]2)[nH]c(=O)c(Cl)c1C(F)(F)F", 8.40),
    ("N#Cc1c(C(F)(F)F)cc(=O)[nH]c1SCc1cccc(-c2nnn[nH]2)c1", 7.49),
    ("N#Cc1c(-c2ccccc2)cc(=O)[nH]c1SCC(=O)O", 5.15),
    ("COCc1cc(=O)[nH]c(SCC(=O)O)c1C#N", 5.05),
    ("N#Cc1c(C(F)(F)F)cc(=O)[nH]c1SCC(=O)O", 8.22),
    ("N#Cc1c(C(F)F)cc(=O)[nH]c1SCC(=O)O", 6.93),
    ("N#Cc1c(C(F)(F)F)cc(=O)[nH]c1SCc1cc(C(=O)O)ccc1F", 6.64),
]

====

Below are IC50 values recorded for human ACMSD (Homo sapiens (Human)).

# Molecule, Measurement Target, Censor Symbol, IC50, nM
records = [
    ("CCc1cc(=O)[nH]c(SCC(=O)O)c1C#N [Ex. 9]", "human ACMSD (Homo sapiens (Human))", "=", 3400),
    ("N#Cc1c(C(F)(F)F)cc(=O)[nH]c1SCc1nnn[nH]1 [Ex. 43]", "human ACMSD (Homo sapiens (Human))", "=", 4),
    ("N#Cc1c(-c2cccs2)cc(=O)[nH]c1SCc1cccc(-c2nnn[nH]2)c1 [Ex. 49]", "human ACMSD (Homo sapiens (Human))", "=", 6),
    ("Cc1cccc(-c2cc(=O)[nH]c(SCc3cccc(C(=O)O)c3)c2C#N)c1 [Ex. 25]", "human ACMSD (Homo sapiens (Human))", "=", 6),
    ("N#Cc1c(C(F)(F)F)cc(=O)[nH]c1SCc1cc(C(=O)O)ccc1Cl [Ex. 3]", "human ACMSD (Homo sapiens (Human))", "=", 158),
    ("N#Cc1c(-c2ccccc2)cc(=O)[nH]c1SCc1cccc(C(=O)O)c1 [Ex. 15]", "human ACMSD (Homo sapiens (Human))", "=", 56),
    ("CCCc1cc(=O)[nH]c(SCC(=O)O)c1C#N [Ex. 6]", "human ACMSD (Homo sapiens (Human))", "=", 3050),
    ("CC(C)(C)c1cc(=O)[nH]c(SCC(=O)O)c1C#N [Ex. 10]", "human ACMSD (Homo sapiens (Human))", "=", 4600),
    ("N#Cc1c(SCC(=O)O)[nH]c(=O)c(F)c1C(F)(F)F [Ex. 17]", "human ACMSD (Homo sapiens (Human))", "=", 9),
    ("N#Cc1c(-c2cccnc2)cc(=O)[nH]c1SCc1cccc(C(=O)O)c1 [Ex. 37]", "human ACMSD (Homo sapiens (Human))", "=", 50),
    ("N#Cc1c(SCC(=O)O)[nH]c(=O)c(Cl)c1C(F)(F)F [Ex. 38]", "human ACMSD (Homo sapiens (Human))", "=", 11),
    ("N#Cc1c(SCc2cccc(C(=O)O)c2)[nH]c(=O)c(F)c1-c1ccccc1 [Ex. 30]", "human ACMSD (Homo sapiens (Human))", "=", 70),
    ("Cc1c(-c2ccccc2)c(C#N)c(SCc2cccc(C(=O)O)c2)[nH]c1=O [Ex. 31]", "human ACMSD (Homo sapiens (Human))", ">", 10000),
    ("CC(C)c1cc(=O)[nH]c(SCC(=O)O)c1C#N [Ex. 13]", "human ACMSD (Homo sapiens (Human))", "=", 2600),
    ("N#Cc1c(-c2cccs2)cc(=O)[nH]c1SCc1cccc(C(=O)O)c1 [Ex. 23]", "human ACMSD (Homo sapiens (Human))", "=", 7),
    ("N#Cc1c(C2CCCCC2)cc(=O)[nH]c1SCc1cccc(C(=O)O)c1 [Ex. 24]", "human ACMSD (Homo sapiens (Human))", "=", 470),
    ("N#Cc1c(-c2ccsc2)cc(=O)[nH]c1SCc1cccc(C(=O)O)c1 [Ex. 36]", "human ACMSD (Homo sapiens (Human))", "=", 160),
]

Numbers sourced from patent US11780812B2.
